Molecular target: Glucocorticoid receptor (Homo sapiens, UniProt P04150)
Sequence (P04150 whole entry): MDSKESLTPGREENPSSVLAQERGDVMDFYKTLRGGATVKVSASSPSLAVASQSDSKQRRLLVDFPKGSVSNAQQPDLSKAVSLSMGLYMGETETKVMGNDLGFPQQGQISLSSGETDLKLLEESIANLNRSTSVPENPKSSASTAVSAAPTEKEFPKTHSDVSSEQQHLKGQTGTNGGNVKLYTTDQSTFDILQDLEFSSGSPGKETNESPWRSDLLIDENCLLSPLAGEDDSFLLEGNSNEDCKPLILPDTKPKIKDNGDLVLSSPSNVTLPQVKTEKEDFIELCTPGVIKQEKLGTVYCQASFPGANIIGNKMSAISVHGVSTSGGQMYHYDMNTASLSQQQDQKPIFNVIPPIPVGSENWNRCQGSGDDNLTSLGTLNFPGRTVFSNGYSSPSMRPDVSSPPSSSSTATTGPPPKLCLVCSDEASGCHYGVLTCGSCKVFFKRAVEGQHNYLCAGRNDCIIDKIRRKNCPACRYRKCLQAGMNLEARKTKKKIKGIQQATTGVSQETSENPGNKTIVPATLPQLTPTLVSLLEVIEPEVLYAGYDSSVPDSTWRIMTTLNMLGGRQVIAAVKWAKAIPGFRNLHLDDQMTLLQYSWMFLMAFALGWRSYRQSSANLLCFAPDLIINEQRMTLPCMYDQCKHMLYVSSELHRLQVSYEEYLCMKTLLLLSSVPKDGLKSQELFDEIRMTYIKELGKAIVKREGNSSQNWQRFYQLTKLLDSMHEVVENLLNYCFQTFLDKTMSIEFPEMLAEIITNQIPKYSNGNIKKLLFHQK
Listed below are compounds with Ki for Glucocorticoid receptor (Homo sapiens, UniProt P04150), each taken from published literature.
Please assign Not satisfied whenever Ki is at or above 2 nM, and Satisfied whenever it is below.

A selection of reference data follows.
Compound	Qualitative label
CC1=CC(C)(C)Nc2ccc3c(c21)C(c1cccc(Br)c1)Oc1ccccc1-3 (stereo not drawn)	Not satisfied
C[C@H]1c2cc(-c3cccc4cc[nH]c34)c(F)c(F)c2NC(C)(C)[C@@H]1O (racemic)	Not satisfied
CCCC1Oc2cccc(OC)c2-c2ccc3c(c21)C(C)=CC(C)(C)N3 (stereo not drawn)	Not satisfied

Query: Say whether its Ki is strictly beneath 2 nM. Entry: CC1=CC(C)(C)Nc2ccc3c(c21)C(c1ccc(Br)cc1)Oc1ccccc1-3 (stereo not drawn)
Reply: Not satisfied

Query: Queued: O=c1[nH]c2cc(/C=C3\c4ccccc4COc4cc(F)ccc43)ccc2n1[C@H]1C[C@H]2COCCN2C1
Reply: Not satisfied

Query: Queued: C=Cc1c(-c2cccc3cc[nH]c23)cc(C)c2c1[C@H](C)[C@@H](O)C(C)(C)N2 (racemic)
Reply: Not satisfied

Query: Queued: CC(C)(C(=O)Nc1nncs1)C(c1ccccc1)c1ccc2c(cnn2CCc2ccccc2)c1 (racemic)
Reply: Not satisfied
